# Test: label from the status in PepcDB records;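 note: failed if final PepcDB status was selected cloned or expressed and not failed if soluble or beyond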
Recorded Endpoint: protein production

MQTIIYQIAPNDWVTDEVLMASTGLKPGTILRARKKAWFVGREYKHMTLDGKPKANGECLYHLPTINRWIRNMPDPDVDLLEHHHHHH; not failed
MVLYFIGLGLYDERDITVKGLEIAKKCDYVFAEFYTSLMAGTTLGRIQKLIGKEIRVLSREDVELNFENIVLPLAKENDVAFLTPGDPLVATTHAELRIRAKRAGVESYVIHAPSIYSAVGITGMHIYKFGKSATVAYPEGNWFPTSYYDVIKENAERGLHTLLFLDIKAEKRMYMTANEAMELLLKVEDMKKGGVFTDDTLVVVLARAGSLNPTIRAGYVKDLIREDFGDPPHILIVPGKLHIVEAEYLVEIAGAPREILRVNV; not failed

* * *

# Test: label from the status in PepcDB records
Recorded Endpoint: protein production

MVFSGPASPGLTLAPLRRGGIDPCYRVDAAGAIWRTSLMPSGPVTARITRAATDAADCQAWGEGADEFIDRLPALLGVDDDASDFAPAEPTIAKARRQVPHLRLGRTGRMLEALIPAIIEQRVYGLDAWRAWRALVTKFGTPAPGPAPDGMRVVPSAEVWRRIPSWEFHRANVDPGRARTIVMCAQRADSLERLTHERAAVTLRSLPGVGEWTAAETMQRVFGDADALSAGDYHLATLVGQALTGEPVDDAGMVELLEPMRPHRHRAVRLLEASGMFVYRRRGARQAIPKLRTLLEHHHHHH; failed
MSSSNQDISIENTDLLTEISVAYYQDGATQEEISRKFAISRAKVGRMLKQARDEGIVEITVKYHPVFSAKIEQRLIERFGVKRALVALDQPNEEAQRLQVSGLVSNYLTSTLKNGMVVTVGQGRNVSSVAHHIGVITPRDCKFVCGIGGIHPRGGMYNADHICRQLAKKYGGTSETLYAPAYAENREQKMAFMQNATVKQTLDLARKADVALVGIGDMSENSYMVDLGWFTPDEVVQSRLKQGVVGDFAGYDFFDIHGNVANTVMSDRVIGLGIEEFRPIAEVIAIAAENSKPLALLGALRTGAIDVIATSVSNALTVLNLDEQMHGNAASES; failed

* * *

# Test: label from the status in PepcDB records
Recorded Endpoint: protein production

PSFNLGYIGLNNRNEYLKNPKVRQAISMAINRRAVVDAFWSGLGRTDTSIVPPALGWATSSKVPADYKFDPAAAKKLLAEAGYPNGFTLDFWYMPITRSYFPQPKASAEAMAADLADVGIKVNLKTEDWAKYLDDLFAGRLSMFQIGLIGDYGDPDYFYGALYNPTSTNDIGWNAPAELDTLLQQARSGLTRQARAQAYARIHELTYNAGYRIPLVHSQ; failed
MVQAQTRDQIVAAADELFYRQGFAQTSFVDISAAVGISRGNFYYHFKTKDEILAEVIRLRLARTAQMLADWQGTGDSPRARIASFIDLMIMNRAKITRYGCPVGSLCTELSKLDHAAQGQANGLFTLFRDWLQRQFAEAGCTTEAPALAMHLLARSQGAATLAQSFHDEGFLRSEVADMHRWLDNTLPMTT; not failed
MSDIQVRHVEADKQFVIAVDGEDAGFAGYAERDGHRNFNHTVIDPRFRGQGLSQPLIQQALEATHADGLGVIATCSAVVGFVQKNPEFRDYLA; failed
GTPVSDAEEIKVKYGCALSELVSKDDTVNVPSVGGRPSRSLQRQTLSEVIEPRYSELMGLVNQTIDSVQAKLREEGIKHH; failed

Consider the record given below.
Query: // returns reported protein production for input `MNCKFEGSKVFFTSDTHFYHGNIIRFCNRPFKDVGMMNETIISNWNNTVGLDDIVFHLGDFCLGGSAEWTKILDRLNGKIYLILGNHDLKNLRQGYVDRFEHLAMQMHIEVNKQKIYLNHYPFLCFDGGYKDVWQLFGHVHTRNNNTGIDATRLQHLYPTQYDVGVDNNNFMPVSFAQVKTIIEKQIKQSKMEELEHHHHHH`
Response: not failed

* * *

# Test: label from the status in PepcDB records
Recorded Endpoint: protein production

MDEFDYVRRKLIERILHLTEKQPVVRPLPGLTVGRRESPTEPSTYILPPSICIAVQGAKRVLIGEEYYVYDVENFLLNSFDVPVVAQVIEASKEKPYIGMTWEIDMEILMEIVVEQKLNTRPITSSRGTSLGKVTHQLLDAFRRMLELLDEPEHISALLPVIKKEIIYRLLVSEQGPRL; failed
MAKAFEEQRRSPDLEALPFEDRIGLLVDREAAERDTRRLTTRLKIAALRQTACVEDVDLRTPRGIDRAVFAKLVEGRWIDRHENLLVTGATGLGKSWLACALGHKACRDNRSVLYHRVPRLFEALALARGDGRYARLLKSLGRAQLLILDDWGLSVLTAAERRDLLEILEDRHGRASTIVTSQLPWTPGMEPLGTPRSPTPFSIASSTTPTASSSPEKACENAAPKPSPLTANQNTDSISHRPLEHHHHHH; failed

* * *

# Test: label from the status in PepcDB records
Recorded Endpoint: protein production

HPNVTFIIGENGTGKSTLLEGIAIALGFNAEGGTKNFRFSTNDSHSSLHEYLRISKSFNTPSDGFFLRAESFYNVASYIDEIDADLEARGNPVIDSYGGISLHEQSHGESFFSLFMNRFSGQGLYILDEPEAALSPMRQLSMLIRMHELAEQGSQFVIATHSPILMAYPESTIYSLTQEG; failed
MRSGFRRCCPAIQRFKKVQRILLIVLFLNLAVAFAKIIYGTLTSTLSMTADGYHSLFDGVSNIVGLVGSFIAARPPDKEHPYGHQKYETIASIFIALLLLYVGVEIFRHALDRFLIRSVPEVTAISFLVIIGTMCINYLVTRYEYRQGLALRSQVLIADSLHTKSDIYVSLSVILSLAAVKLGFPLLDPLIAVLISFLIFRAGFRIMKESSKVLLDMSRLEEDEICNLVLGVEGVLGCHKIRTRGGMGDIRIDMHVLVQADLTLEEAHLISHRVSKMLKAEYNDVTDVVVHLEPALPQGSYSKKTT; failed

* * *

# Test: label from the status in PepcDB records
Recorded Endpoint: protein production

MIKHESSQPLRVAVAQCRIDWEDKHANLRRMERLAEETAGMADVLFFPEMMTTGFSMNVQALAEPFEEGETIMSLKRVTARHGLALSATMAVRENGKFYNRAYFVTPEGEVFHQDKRHLFRVGGEHEVMTPAQERRIFNY; failed
EITSANTEWFFNPNAYVIIAESVESGKIVGGARIHIVGGTQPLPIEDAIGKMDPHIYKLVEEHGKKGSGELCGLWNAREVAGMGISTMLTRAAIALAIQLNLSTLFVICAERTYQNIFKDQGFEIIP; failed
MTAAVARALTLWGLDGASYELAAQRENEVWKVSDGTRHYALRFHRPAYRSEAELTSELLWVEMLGQAGMQVPQPVRQPDGAVLGRIEGRHVSLLDWLGGRPLGKMGQLAPDLDAEAVGRMIGAQMARMHDLSDRWTPPAGFQRPDWRRSGLLGADPLWGRFWEHPDLDPAQRQLMIATRERALACFEDFAPGADQGLIHADLVVENVLVDHDRVAFIDFDDGAWGYRDFDLATVLVKFIGQPDYDRLRAGLCAGYDARRRVEPGTLDFMLLLRALTYPGWIMSRLDEPGGRQRSARMLDTALRLARDFMEERQR; failed

* * *

# Test: label from the status in PepcDB records
Recorded Endpoint: protein production

MAESKRDYYEVLGVSKDADDAAIKKAYRALAKKYHPDMNPGDAEAEKKFKEASEAYAVLSDAEKRRQYDQFGHAAFEGGAGGAGGFGGFDFNGADFGDIFGDIFGDLFGGGGRRGGRANNGPMKGANIRKSIRITFEEAVFGCKKELEVILKDPCTTCGGTGAKPGTSPETCPKCGGKGQVVYTSQSFFGTVQNVQTCPNCGGSGKVIKEKCTSCSGTGYTSSKKKIEVTIPAGIDNGQSVRIREKGEPGTNGGPRGDLLVEVNVSRHPIFQRQDMHIFSTVPISFAQAALGGDVKIQTVDGAVIYNVKPGTKTDTKVRLKGKGVPSLRNSAVRGDHYVTLVIQTPEKLSAEAKEALRRFDELSGNSLHQNDSNPEKSEKKTKRKGFMDKVKEAFEGED; failed
MTSSDLPVMLFAAGFGTRMGDLTRTRPKPLIEVAGRPLVDHTLDLARAVSPPRIVANLHYLAPLLAAHLAPQGVLLSHEQPDILDTGGGLRQALPLLAAETVFTANSDAIWSGPNPFALLAEAWEPARMDALLMCVPVGQAIGHAGHGDFSRDAQGRIERGPGLIYGGVQIVKTGGLGDFDMPAFSLNLLWNRIGAAGRLFALEYPGRWCDVGHPGGIALAEEMLRDVLEHHHHHH; not failed
MVYWEYKINQTRRVMKNLKFQSVFDIIGPVMVGPSSSHTAGAVRIGKIVSAIFGDAPTEVEFQLFNSFAKTYRGHGTDVALVAGILGMETDDPDIPHALDIAHEKGIKVYWKINKDSKAPHPNTTRITLKNATKTISATGISIGGGNIQVTELNGF; not failed
PVPATPILQLEECCTHNNSATLSWKQPPLSTVPADGYILELDDGNGGQFREVYVGKETMCTVDGLHFNSTYNARVKAFNKTGVSPYSKTLVLQTSEG; not failed
MDLCRSSILLLIIALLSPRTLSMRYELKSSKTKCIGEEIHENAMSIGKYFIVNPNEDNHPLPDSHKIIVKVMPPQGKNLHEADKVEAGQFSFTAYENGSYVACITAIDYKPETTLTIDFDWKTGVHSKEWTNVAKKSQVDMMEYQVKTLMDTVISIHEEMYYLREREEEMQELNRSTNSKMAWLSFGSLVVCLSVAGLQFWHLKTFFEKKKLI; failed

Kindly consider the entry below.
Query: Consider the sequence `MEIKAYKKKNGTTAYKFKAYIGKKNGKSQYAEKSGFKTKADARAALHNIQEEIDNPTPKSSMTFKELYDEWLLVYEKEVQNSTYYKTTRAFEKHVLPVIGSTKLSDFTPMELQNFRNDLSEKLKFARKLFGMVRKVFNHAALLSYIQANPALPVTSQGIKKKVEEKKDFYDTDELRDFMALVEKTNDIKKIALFRILAFTGIRKGELLALEWKDYRKSTLDINKAISHSPVGYEILPPKANSNRLLSLDEKTCKILDELHQTYPESTRIFESENGGMLSPSKPRKWLLEITKEKEIEPIRIHAFRHTHASLLFESGMSLKQVQYRLGHADLKTTMNIYTHITKFAKDKIGQQFSDYIDF` and give its measured protein production.
Response: failed

Each recorded value in this set is attributed to a protein production outcome set (Wang et al. 2014).
